- Assayed System: HLA B*1501 (Homo sapiens, UniProt P01889, A329T/A93T/A95T/C349S/D201E/D98Y/E187L/E204Q/E69M/E70A/K202T/N87E/Q94N/R155S/R180W/S121R/S35A/S48A/V306I/V36M/Y140S/Y91S)
- Assay Overview: biochemical
Where a SMILES comes first, the peptide text is derived from it.
Measured Metric: pIC50
pIC50 is defined as minus the log10 of a concentration measured in mol/L.

[ask] Look up pIC50 for this compound: CC[C@H](C)[C@H](NC(=O)[C@H](CCC(N)=O)NC(=O)[C@@H](N)CC(C)C)C(=O)N[C@@H](Cc1ccccc1)C(=O)N[C@@H](CO)C(=O)N[C@@H](CC(N)=O)C(=O)N[C@@H](CO)C(=O)N[C@H](C(=O)NCC(=O)O)C(C)C [3102.0809] (H-LQIFSNSVG-OH)
[reply] 8.68

[ask] Look up pIC50 for this compound: CC[C@H](C)[C@H](NC(=O)[C@@H](N)CCSC)C(=O)N[C@@H](CCCCN)C(=O)N[C@@H](CC(N)=O)C(=O)N[C@@H](CC(C)C)C(=O)N[C@H](C(=O)N[C@@H](CCC(N)=O)C(=O)N[C@@H](CC(C)C)C(=O)N[C@@H](Cc1ccccc1)C(=O)O)[C@@H](C)O [3102.1037] (H-MIKNLTQLF-OH)
[reply] 8.24

[ask] Look up pIC50 for this compound: C[C@@H](O)[C@H](NC(=O)[C@H](CCCCN)NC(=O)[C@H](Cc1ccc(O)cc1)NC(=O)[C@H](CCC(N)=O)NC(=O)[C@@H](N)CCC(=O)O)C(=O)N[C@@H](CCC(=O)O)C(=O)N[C@@H](CO)C(=O)N[C@@H](Cc1ccccc1)C(=O)N[C@@H](Cc1ccccc1)C(=O)O [3102.1224] (H-EQYKTESFF-OH)
[reply] 8.18

###

- Assayed System: HLA A*3001 (Homo sapiens, UniProt P04439, D140H/D185E/E176W/F33S/G80R/H175R/K168Q/R138E/R41S)
- Sequence (P04439 25-365 limits assumed, stated change not applied): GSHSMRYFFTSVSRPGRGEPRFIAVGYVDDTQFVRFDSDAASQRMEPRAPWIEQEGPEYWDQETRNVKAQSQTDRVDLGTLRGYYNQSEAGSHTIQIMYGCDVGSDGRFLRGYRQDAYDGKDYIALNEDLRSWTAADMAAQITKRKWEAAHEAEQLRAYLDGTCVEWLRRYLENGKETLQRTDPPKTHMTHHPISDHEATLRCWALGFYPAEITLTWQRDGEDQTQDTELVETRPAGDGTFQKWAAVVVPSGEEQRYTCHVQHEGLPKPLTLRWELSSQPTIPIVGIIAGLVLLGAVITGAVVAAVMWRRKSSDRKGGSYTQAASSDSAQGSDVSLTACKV
- Assay Overview: biochemical
Where a SMILES comes first, the peptide text is derived from it.
Measured Metric: IC50 (nM)
Unit nM implied. Number only.

[
  {
    "Compound": "CC[C@H](C)[C@H](NC(=O)[C@H](C)NC(=O)[C@H](CC(C)C)NC(=O)[C@H](Cc1c[nH]cn1)NC(=O)[C@H](CCC(N)=O)NC(=O)[C@@H](N)Cc1c[nH]cn1)C(=O)N[C@@H](CCSC)C(=O)N[C@@H](Cc1ccccc1)C(=O)N[C@@H](CCCCN)C(=O)O [3102.0020] (H-HQHLAIMFK-OH)",
    "IC50 [nM]": 5
  },
  {
    "Compound": "CC[C@H](C)[C@H](NC(=O)[C@H](CCSC)NC(=O)[C@H](CC(C)C)NC(=O)[C@@H]1CCCN1C(=O)[C@H](CCCNC(=N)N)NC(=O)[C@H](Cc1ccccc1)NC(=O)[C@@H](N)CCCCN)C(=O)N[C@@H](Cc1ccccc1)C(=O)N[C@@H](CCSC)C(=O)O [3102.0084] (H-KFRPLMIFM-OH)",
    "IC50 [nM]": 1.8
  },
  {
    "Compound": "CC[C@H](C)[C@H](NC(=O)[C@H](Cc1ccccc1)NC(=O)[C@H](CCCCN)NC(=O)[C@H](Cc1ccc(O)cc1)NC(=O)[C@H](Cc1ccccc1)NC(=O)[C@H](C)NC(=O)[C@H](CCCCN)NC(=O)[C@@H](NC(=O)[C@@H](N)Cc1c[nH]cn1)C(C)C)C(=O)O [3102.0138] (H-HVKAFYKFI-OH)",
    "IC50 [nM]": 0.35
  }
]

[ask] Look up IC50 for this compound: CC[C@H](C)[C@H](NC(=O)[C@H](CC(C)C)NC(=O)[C@H](CO)NC(=O)CNC(=O)[C@@H]1CCCN1C(=O)[C@H](CCCNC(=N)N)NC(=O)[C@H](Cc1ccccc1)NC(=O)[C@@H](N)CCCCN)C(=O)N[C@@H](Cc1ccc(O)cc1)C(=O)O [3102.0230] (H-KFRPGSLIY-OH)
[reply] 0.3

[ask] Look up IC50 for this compound: CC[C@H](C)[C@H](N)C(=O)N[C@H](C(=O)N[C@@H](CCCNC(=N)N)C(=O)N[C@@H](CC(=O)O)C(=O)N[C@@H](CO)C(=O)N[C@@H](CCSC)C(=O)N[C@@H](Cc1c[nH]c2ccccc12)C(=O)N[C@@H](Cc1ccc(O)cc1)C(=O)N[C@H](C(=O)O)[C@@H](C)CC)C(C)C [3102.0125] (H-IVRDSMWYI-OH)
[reply] 20

[ask] Look up IC50 for this compound: CC[C@H](C)[C@H](NC(=O)[C@H](CC(C)C)NC(=O)[C@@H](NC(=O)[C@@H](NC(=O)[C@H](CCCNC(=N)N)NC(=O)[C@H](Cc1ccccc1)NC(=O)[C@@H](N)CCCNC(=N)N)[C@@H](C)O)C(C)C)C(=O)N[C@@H](CO)C(=O)N[C@@H](CCCCN)C(=O)O [3102.0004] (H-RFRTVLISK-OH)
[reply] 4.6

[ask] Look up IC50 for this compound: C[C@H](NC(=O)[C@H](C)NC(=O)[C@H](CCCCN)NC(=O)CNC(=O)[C@@H](N)CCCCN)C(=O)N[C@@H](C)C(=O)N[C@@H](Cc1ccccc1)C(=O)N[C@@H](C)C(=O)N[C@@H](CCCCN)C(=O)O [3102.0176] (H-KGKAAAFAK-OH)
[reply] 3.1
